Biological target: HIV-1 envelope glycoprotein gp120 (IIIB) (HIV-1 IIIB (HXB2 clone entry), UniProt P04578)
Experiment: cell-based or functional assay
Item-by-item account of IC50 of neutralisation of HIV-1 IIIB in TZM-bl cells, Exp2
The response must be a number in µg/mL with no trailing unit.

Worked set:
VHH D7 Trp96→Ala (VHH, PDB 2xa3 holds D7 with five framework changes) with the stated CDR3 mutation; Chothia numbering) VHH: AVQLVESGGGLAQAGGSLRLSCTVSGRTSSSHDMGWFRQAPGKEREFVAAISWSGGTTNYADSVKGRFAISKDNAKNAVSLQMNSLKPEDTAVYYCAAKARPLRYSDNPSNSDYNYWGQGTQVTVSS	2.43
VHH D7 Tyr100A→Ala (VHH, PDB 2xa3 holds D7 with five framework changes) with the stated CDR3 mutation; Chothia numbering (100A is an insertion position)) VHH: AVQLVESGGGLAQAGGSLRLSCTVSGRTSSSHDMGWFRQAPGKEREFVAAISWSGGTTNYADSVKGRFAISKDNAKNAVSLQMNSLKPEDTAVYYCAAKWRPLRASDNPSNSDYNYWGQGTQVTVSS	0.018
llama heavy chain antibody fragment VHH D7, wild type (VHH, PDB 2xa3 holds D7 with the framework changes Val5Gln, Ala11Val, Ala61Val, Ala68Asp and Ser79Tyr against wild type D7) VHH: AVQLVESGGGLAQAGGSLRLSCTVSGRTSSSHDMGWFRQAPGKEREFVAAISWSGGTTNYADSVKGRFAISKDNAKNAVSLQMNSLKPEDTAVYYCAAKWRPLRYSDNPSNSDYNYWGQGTQVTVSS	0.041
VHH D7 Lys95→Ser (VHH, PDB 2xa3 holds D7 with five framework changes) with the stated CDR3 mutation; Chothia numbering) VHH: AVQLVESGGGLAQAGGSLRLSCTVSGRTSSSHDMGWFRQAPGKEREFVAAISWSGGTTNYADSVKGRFAISKDNAKNAVSLQMNSLKPEDTAVYYCAASWRPLRYSDNPSNSDYNYWGQGTQVTVSS	2.64
VHH D7 double mutant Asn101→Tyr/Tyr102→Asp (VHH, PDB 2xa3 holds D7 with five framework changes) with the stated CDR3 mutations; Chothia numbering; also called double mutant Asn^101Tyr^102) VHH: AVQLVESGGGLAQAGGSLRLSCTVSGRTSSSHDMGWFRQAPGKEREFVAAISWSGGTTNYADSVKGRFAISKDNAKNAVSLQMNSLKPEDTAVYYCAAKWRPLRYSDNPSNSDYYDWGQGTQVTVSS	0.005
VHH D7 Asp100C→Ala (VHH, PDB 2xa3 holds D7 with five framework changes) with the stated CDR3 mutation; Chothia numbering (100C is an insertion position)) VHH: AVQLVESGGGLAQAGGSLRLSCTVSGRTSSSHDMGWFRQAPGKEREFVAAISWSGGTTNYADSVKGRFAISKDNAKNAVSLQMNSLKPEDTAVYYCAAKWRPLRYSANPSNSDYNYWGQGTQVTVSS	0.014

In the following, a different binder is considered.
Give a short answer stating reported IC50 of neutralisation of HIV-1 IIIB in TZM-bl cells, Exp2 for VHH D7 Leu99→Ala (VHH, PDB 2xa3 holds D7 with five framework changes) with the stated CDR3 mutation; Chothia numbering) VHH: AVQLVESGGGLAQAGGSLRLSCTVSGRTSSSHDMGWFRQAPGKEREFVAAISWSGGTTNYADSVKGRFAISKDNAKNAVSLQMNSLKPEDTAVYYCAAKWRPARYSDNPSNSDYNYWGQGTQVTVSS .
0.56

The measurements presented in this section are drawn from paper PMC2864739.
